tested on: G401 cells; assay: Combination of tazemetostat with other agents, co-treatment model, luminescent cell viability (ATP) assay; type: cell-based; conditions: grown for seven days
Readout type: Combination treatment with tazemetostat, G401

[
  {
    "Molecule": "CO[C@H]1C[C@@H]2CC[C@@H](C)[C@@](O)(O2)C(=O)C(=O)N2CCCC[C@H]2C(=O)O[C@H]([C@H](C)C[C@@H]2CC[C@@H](OCCO)[C@H](OC)C2)CC(=O)[C@H](C)/C=C(\\C)[C@@H](O)[C@@H](OC)C(=O)[C@H](C)C[C@H](C)/C=C/C=C/C=C/1C [Everolimus]",
    "Obs value": "Additive"
  },
  {
    "Molecule": "COc1cc([C@@H]2c3cc4c(cc3[C@@H](O[C@@H]3O[C@@H]5CO[C@@H](C)O[C@H]5[C@H](O)[C@H]3O)[C@H]3COC(=O)[C@H]23)OCO4)cc(OC)c1O [Etoposide]",
    "Obs value": "Synergy"
  },
  {
    "Molecule": "COc1cccc2c1C(=O)c1c(O)c3c(c(O)c1C2=O)C[C@@](O)(C(=O)CO)C[C@@H]3O[C@H]1C[C@H](N)[C@H](O)[C@H](C)O1 [Doxorubicin]",
    "Obs value": "Additive"
  },
  {
    "Molecule": "CC[C@@]1(O)C(=O)OCc2c1cc1n(c2=O)Cc2cc3c(CN(C)C)c(O)ccc3nc2-1 [Topotecan]",
    "Obs value": "Synergy"
  },
  {
    "Molecule": "Nc1ccn([C@@H]2O[C@H](CO)[C@@H](O)[C@@H]2O)c(=O)n1 [Cytarabine/Ara-C, Cytarabine]",
    "Obs value": "Additive"
  },
  {
    "Molecule": "Nc1ccccc1NC(=O)c1ccc(CNC(=O)OCc2cccnc2)cc1 [Entinostat]",
    "Obs value": "Synergy"
  }
]

Proceeding to the next molecule to report its Combination treatment with tazemetostat, G401.
Combination treatment with tazemetostat, G401 measured on COc1cc(Nc2ncc3c(n2)-c2ccc(Cl)cc2C(c2c(F)cccc2OC)=NC3)ccc1C(=O)O [Alisertib] = Additive
